Please provide measured MIC50 for the entries that follow.
# System: Mycobacterium tuberculosis
# test: Inhibition of Bio-A overexpressed in Mycobacterium tuberculosis in presence of anhydrotetracycline after 9 days
Report the value in µM with no unit label.

Q. Fill in the blank: the reported MIC50 of CC(=O)c1ccc(N2CCC(C(=O)c3cccc(Cl)c3)CC2)cc1 is ____.
A. 9.2

Q. Same read-out for CC(=O)c1ccc(N2CCN(C(=O)c3ccc4c(c3)OCO4)CC2)cc1 ?
A. 31.1

Q. Check CCCCCC(=O)N1CCN(c2ccc(C(C)=O)cc2)CC1 too.
A. 47.6

---

# System: Mycobacterium tuberculosis
# test: Inhibition of Bio-A overexpressed in Mycobacterium tuberculosis in presence of anhydrotetracycline after 9 days
Assignment: determine reported MIC50 for the given molecules.

Q. Return MIC50 measured with Mycobacterium tuberculosis given this molecule: CC(=O)c1ccc(N2CCN(C(=O)c3ccc(Cl)c(Cl)c3)CC2)cc1
A. 17.7 µM

Q. Entry to check: CC(=O)c1ccc(-c2cn(Cc3cccc(Cl)c3)nn2)s1
A. > 50 µM

Q. Also need COc1ccc(-c2ccc(N3CCN(C(=O)c4cccc(Cl)c4)CC3)cc2)nc1 , thanks.
A. > 50 µM

Q. Entry O=C(c1cccc(Cl)c1)N1CCN(c2ccc([N+](=O)[O-])cc2)CC1 please
A. 20.9 µM

Q. Check COc1cc(Cl)cc(C(=O)N2CCN(c3ccc(C(C)=O)cc3)CC2)c1 too.
A. > 50 µM

Q. One more molecule: CC(=O)c1ccc(N2CCN(C(=O)c3cnn(C)c3)CC2)cc1
A. > 50 µM

Q. Please give the result for CC(=O)c1ccc(-c2cn(Cc3cccc(Cl)c3)nn2)cc1 too.
A. > 50 µM

Q. Record: CC(=O)c1cccc(N2CCN(C(=O)c3cccc(Cl)c3)CC2)c1
A. > 50 µM

Q. Entry to check: O=C(c1cccc(Cl)c1)N1CCN(c2ccc(-c3ccccn3)cc2)CC1
A. > 50 µM

Q. Subsequent entry: N#Cc1ccc(N2CCN(C(=O)c3cccc(Cl)c3)CC2)cc1
A. 45.9 µM

Q. Entry to check: Cc1noc(-c2ccc(N3CCN(C(=O)c4cccc(Cl)c4)CC3)cc2)n1
A. > 50 µM
